Molecular target: NT-3 growth factor receptor (Homo sapiens) (UniProt Q16288);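 note: mean percent inhibition of TRKC, reported within the GSK PKIS dataset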
Sequence (Q16288 32-839 limits assumed): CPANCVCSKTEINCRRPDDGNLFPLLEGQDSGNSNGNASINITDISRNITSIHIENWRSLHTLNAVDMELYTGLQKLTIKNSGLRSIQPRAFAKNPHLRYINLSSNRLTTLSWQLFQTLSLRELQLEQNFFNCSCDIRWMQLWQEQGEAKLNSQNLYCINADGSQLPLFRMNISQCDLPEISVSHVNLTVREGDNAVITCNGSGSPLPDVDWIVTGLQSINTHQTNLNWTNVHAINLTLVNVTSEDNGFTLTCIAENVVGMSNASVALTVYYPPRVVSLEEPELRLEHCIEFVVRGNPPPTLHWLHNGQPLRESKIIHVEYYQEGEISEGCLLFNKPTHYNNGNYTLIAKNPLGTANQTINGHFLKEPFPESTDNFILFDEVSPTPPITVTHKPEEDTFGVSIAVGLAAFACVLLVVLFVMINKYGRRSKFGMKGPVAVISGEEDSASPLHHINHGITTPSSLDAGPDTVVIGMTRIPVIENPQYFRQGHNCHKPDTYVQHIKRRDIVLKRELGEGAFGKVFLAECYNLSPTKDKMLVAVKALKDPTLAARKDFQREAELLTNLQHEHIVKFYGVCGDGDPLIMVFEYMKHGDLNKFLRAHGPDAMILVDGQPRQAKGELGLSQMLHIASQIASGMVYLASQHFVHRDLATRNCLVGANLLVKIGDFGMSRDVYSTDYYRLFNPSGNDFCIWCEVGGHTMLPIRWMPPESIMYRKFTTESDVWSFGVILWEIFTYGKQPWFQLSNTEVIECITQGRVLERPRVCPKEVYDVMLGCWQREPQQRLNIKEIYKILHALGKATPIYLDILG
Conditions: at 0.1 µM
Tick Condition met if inhibition is 4% or greater. Tick Condition not met if inhibition is less than 4%.

# input Check this compound for inhibition at or above 4%: "NS(=O)(=O)c1ccc(N/N=C2\C(=O)Nc3ccc(C(=O)NCc4ccncc4)cc32)cc1"
# output Condition met

# input Note, next up: "COc1cccc(Nc2nccc(-c3cnn4ncccc34)n2)c1"
# output Condition met

# input Note, next up: "c1cnn2ncc(-c3ccnc(NCCCN4CCOCC4)n3)c2c1"
# output Condition not met

# input Note, next up: "Fc1ccc(Nc2nccc(-c3c(-c4ccc(C(F)(F)F)cc4)nn4ncccc34)n2)cc1F"
# output Condition not met

Cited source for all entries: ChEMBL document CHEMBL1961873
